study.target: Voltage-gated potassium channel subunit beta-2 (Rattus norvegicus) (UniProt P62483)
Sequence (P62483 whole entry, looked up): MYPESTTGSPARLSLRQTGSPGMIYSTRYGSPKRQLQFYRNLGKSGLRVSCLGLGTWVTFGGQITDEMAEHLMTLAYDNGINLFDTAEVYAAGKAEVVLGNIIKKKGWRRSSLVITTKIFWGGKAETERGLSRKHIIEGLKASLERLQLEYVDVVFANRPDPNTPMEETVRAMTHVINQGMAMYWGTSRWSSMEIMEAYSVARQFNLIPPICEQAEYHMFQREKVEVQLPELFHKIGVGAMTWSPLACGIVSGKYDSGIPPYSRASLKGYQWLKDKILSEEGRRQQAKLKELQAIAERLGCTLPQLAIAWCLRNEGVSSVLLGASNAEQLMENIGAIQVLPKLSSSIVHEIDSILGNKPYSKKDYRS
protocol.text: KvBeta positive modulators, primary screen, biochemical, NADPH fluorescence (AID 623);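 note: fluorescence intensity change per second fitted from 20 to 320 s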
condition.context: Recombinant KvBeta, NADPH fluorescence decrease slope, 10 min; at 10 µM; stronger effect = lower value
A collection of molecules and their measured NADPH fluorescence slope
measured.metric: NADPH fluorescence slope

molecule: Cc1nc(-c2coc3cc(OCC(=O)O)ccc3c2=O)cs1
data.value: -4.6e-05
//
molecule: Nc1ccc(S(=O)(=O)c2ccc(N)cc2)cc1
data.value: 3.3e-05
//
molecule: COc1ccc(CN2CCC(=O)NC2=O)cc1
data.value: -3.7e-05
//
molecule: CCOc1cccc(-c2nn3c(-c4ccco4)nnc3s2)c1
data.value: -0.00014
//
molecule: CC(=O)C1=C(O)C(=O)N(c2cccc(C(=O)O)c2)C1c1ccc(F)cc1 (configuration not stated)
data.value: -3.9e-05
//
molecule: Cn1cc(Br)cc2nc(C(F)(F)F)nc1-2
data.value: -2.5e-05
//
molecule: Cc1c(C)c2cc(Cl)c(O)c(CN3CCCCC3)c2oc1=O
data.value: -2.2e-05
//
molecule: COC(=O)COn1c(SCC(=O)OC)nc2ccccc2c1=O
data.value: -0.000116
//
molecule: COc1cc(C2C(C#N)=C(N)Oc3cc(C)n(CCc4ccccc4)c(=O)c32)cc2c1OCO2 (configuration not stated)
data.value: -0.000158
//
molecule: O=C(OCCN1CCOCC1)c1ccc(OCCN2CCOCC2)cc1
data.value: -5.3e-05
//
molecule: CC(=O)Nc1n[nH]c(S(=O)(=O)Cc2ccc(Cl)cc2Cl)n1
data.value: -0.000133
//
molecule: CCOC(=O)c1sc(-n2[nH]c(C)cc2=O)nc1C
data.value: -7e-05
//
molecule: Cc1ccc(C2/C(=C(\O)c3cnn(-c4ccccc4)c3C)C(=O)C(=O)N2CCN(C)C)o1 (configuration not stated)
data.value: -3.5e-05
//
molecule: C1CNCCNCCNCCN1
data.value: -4.4e-05
//
molecule: COc1ccc(/C=C(/C#N)c2cccnc2)cc1OC
data.value: -4.4e-05
//
molecule: O=C1OC(Nc2ccc(Br)cc2F)c2ccccc21 (configuration not stated)
data.value: -4.6e-05
//
molecule: CO[C@@]1(NC(=O)CSCC#N)C(=O)N2C(C(=O)O)=C(CSc3nnnn3C)CS[C@@H]21
data.value: -7e-05
//
molecule: CC1(C)CC(=O)C=C(NCc2ccncc2)C1
data.value: -3.5e-05
//
molecule: N/C(CCCN1CCCCC1)=N/O
data.value: -8e-06
//
molecule: Cc1cc(Cl)ccc1OCC(=O)OC(C)C(=O)N(C)C (configuration not stated)
data.value: -0.000171
//
molecule: C=CCn1cnc2c(c1=O)c1nc3ccccc3nc1n2-c1ccc(C)cc1
data.value: -6.7e-05
//
molecule: O=C(NCc1cccnc1)c1ccc(=O)oc1
data.value: -4.3e-05
//
molecule: O=C(c1cccc(Cl)c1)N1CCN(C(=O)c2ccccc2F)CC1
data.value: -1.8e-06
//
molecule: NC(=O)N1c2ccccc2C=Cc2ccccc21
data.value: -4.6e-05
//
molecule: C=CCOc1nc(-c2ccncc2)nc2ccccc12
data.value: -3.3e-05
//
molecule: COc1ccccc1-c1nn2c(-c3ccc(C(C)(C)C)cc3)nnc2s1
data.value: -3.3e-05
//
molecule: CS(=O)(=O)Nc1ccc([N+](=O)[O-])cc1Oc1ccccc1
data.value: -3.9e-05
//
molecule: CCc1cc(=O)oc2c(CN3CCCC3)c(O)c(Cl)cc12
data.value: -3.3e-05
//
molecule: CCN(CC)S(=O)(=O)c1cccc2c(N(C)C)cccc12
data.value: -1.3e-05
//
molecule: CC1=NN(c2ccccc2)C(=O)C1
data.value: 5.3e-06
//
molecule: CCC(=O)O[C@@H]1CC(=O)O[C@H](C)CC=CC=C[C@@H](O)[C@H](C)C[C@H](CC=O)[C@H](O[C@H]2O[C@H](C)[C@@H](O[C@H]3C[C@@](C)(O)[C@@H](OC(=O)CC)[C@H](C)O3)[C@H](N(C)C)[C@H]2O)[C@H]1OC
data.value: -4.8e-05
//
molecule: CC(C)CCNC(=O)[C@H](CC(C)C)NC(=O)[C@H]1O[C@@H]1C(=O)O
data.value: -1.1e-05
//
molecule: COc1cc2c(C(=O)N3CCN(c4ccccc4)CC3)c(C)oc2cc1Br
data.value: -2.7e-05
//
molecule: CCc1ccc(NC(=O)CSC2=C(C#N)C(c3ccco3)C3=C(CCCC3=O)N2)cc1 (configuration not stated)
data.value: -8.3e-05
//
molecule: N#Cc1c(-c2ccccc2Cl)cc(C2CC2)nc1N
data.value: -2.4e-05
//
molecule: CCCSc1nc(N2CCCC2)c2c(c1C#N)CC(C)(C)OC2
data.value: 4.6e-06
//
molecule: CCOc1ccc(CC2CC(=O)NC2=O)cc1 (configuration not stated)
data.value: -9.9e-05
//
molecule: CNC[C@H](O)c1cccc(O)c1
data.value: -5e-05
//
molecule: CN(C)c1nc2n(c(=O)n1)C(C#N)CS2 (configuration not stated)
data.value: -5.8e-06
//
molecule: CC(C)C1Cc2c(sc3c2c(=O)n(Cc2ccccc2)c2nncn32)CO1 (configuration not stated)
data.value: -0.000346
//
molecule: CCN(CC)S(=O)(=O)c1ccc2c(c1)c(C(=O)O)cn2C
data.value: -6e-05
//
molecule: CN(Cc1ccccc1)Cc1c[nH]c2ccccc12
data.value: -4.2e-05
//
molecule: Fc1ccc2[nH]c3c(N4CCN(c5ccccc5)CC4)ncnc3c2c1
data.value: 6.6e-06
//
molecule: CCOC(=O)[C@H](CCc1ccccc1)N[C@@H](C)C(=O)N1CCC[C@H]1C(=O)O
data.value: -1.6e-05
//
molecule: Cc1ccc2[nH]c3c(N4CCCCCC4)ncnc3c2c1
data.value: -0.000151
//
molecule: Cn1ccnc1SCCC#N
data.value: -0.000118
//
molecule: Cc1ccc(S(=O)(=O)N2CCN(c3nc(C)c4c(c3C#N)CC(C)(C)OC4)CC2)cc1
data.value: -0.000183

---

protocol.text: inhibitors of mutant huntingtin aggregation, primary screen, imaging, exon1htt(103Q)mCFP cells, high-content imaging (AID 483);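 note: compound exposure lasted 3 days before fixation; percent of the per-plate median nuclei count of sample wells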
condition.context: exon1htt(103Q)mCFP cell line, aggregate imaging, at 2 µM; measured here: cell count, toxicity
Note to self: values exactly at 90% are 1. So nuclei count at or above 90% is 1, below is 0.

molecule: CCOC(=O)C1(C(=O)OCC)C(c2ccccc2)CC(O)N1C(C)=O (stereo not given)
class.label: 1
--
molecule: Cn1nnc2c(sc3nc(N4CCOCC4)c4c(c32)CCCC4)c1=O
class.label: 1
--
molecule: COc1ccc(CCn2c(=N)c(C#N)cc3c(=O)n4ccccc4nc32)cc1
class.label: 1
--
molecule: COCCOC(=O)c1c(C)nc(SCC(=O)Nc2ccc(OC)cc2)c(C#N)c1-c1ccco1
class.label: 0
--
molecule: Fc1ccccc1-c1nc(NCCCN2CCOCC2)c2ccccc2n1
class.label: 1
--
molecule: CC1(C2(O)CC(c3ccccc3)ON2)CCCCC1 (stereo not given)
class.label: 0
--
molecule: O=C(CCNNC(=O)c1ccncc1)NCc1ccccc1
class.label: 1
--
molecule: CCCN(CCC)S(=O)(=O)c1ccc(C(=O)O)cc1
class.label: 1
--
molecule: Cc1cc(Cn2ccnc2)c(C)cc1Cn1ccnc1
class.label: 1
--
molecule: Oc1c(I)cc(I)c2cccnc12
class.label: 1
--
molecule: COCCOC(=O)C1=C(C)NC(C)=C(C(=O)OC(C)C)C1c1cccc([N+](=O)[O-])c1 (stereo not given)
class.label: 1
--
molecule: CCN1CCc2c(C#N)c(N3CCOCC3)nc(NCc3ccccc3)c2C1
class.label: 0
--
molecule: Clc1ccc2c(c1)C(N1CCNCC1)=Nc1ccccc1O2
class.label: 0
--
molecule: Cc1nc(NS(=O)(=O)c2ccccc2)sc1NC(=O)OC(C)C
class.label: 1
--
molecule: Cc1nn(C)cc1C1C2=C(CC(C)(C)CC2=O)OC2=C1C(=O)CC(C)(C)C2
class.label: 1
--
molecule: Cc1c(NC(=O)c2coc(=O)c(Br)c2)c(=O)n(-c2ccccc2)n1C
class.label: 1
--
molecule: N#Cc1nc(COc2ccc(Br)cc2)oc1N1CCCC1
class.label: 1
--
molecule: Cc1cc2c(c(=O)o1)C(Cc1ccccc1)C(C#N)=C(N)O2 (stereo not given)
class.label: 0
--
molecule: C/C(=C\C(=O)O)CC(=O)O
class.label: 1
--
molecule: C=C(C)C1Cc2c(C)nn(-c3nc(C)cc(C)n3)c2C1 (stereo not given)
class.label: 0
--
molecule: O=C(O)CCCCCCC1C(=O)NC(=O)N1CCC(O)C1CCCCC1 (stereo not given)
class.label: 1
--
molecule: CCOC(=O)CC(C#N)c1cn(C)c2ccccc12 (stereo not given)
class.label: 1
--
molecule: CCN(CC)CCCN1C(=O)C(=O)/C(=C(/O)c2ccccc2)C1c1ccccn1 (stereo not given)
class.label: 1
--
molecule: CN1CCN(/C=N/c2sc3c(c2C#N)CCCCC3)CC1
class.label: 1
--
molecule: COC(=O)c1ccc(-c2sc3nc(N4CCOCC4)c4c(c3c2N)CCCC4)o1
class.label: 1
--
molecule: CC1=C(/C=C/C(C)=C/C=C/C(C)=C/C(=O)O)C(C)(C)CCC1
class.label: 1
--
molecule: c1ccc(CN2CCN(c3ncnc4c3[nH]c3ccccc34)CC2)cc1
class.label: 1
--
molecule: CC(C)N=c1cc2n(-c3ccc(Cl)cc3)c3ccccc3nc-2cc1Nc1ccc(Cl)cc1
class.label: 1
--
molecule: Brc1cccc(-c2cnc3n2CCCCC3)c1
class.label: 0
--
molecule: O=C1N[C@@H](Cc2cnc[nH]2)C(=O)N2CCC[C@@H]12
class.label: 1
--
molecule: Cc1cc(C)nc(NC(=O)c2ccc(OC(C)C)cc2)n1
class.label: 1
--
molecule: Cn1cc(NC(=O)c2cc(NC(=O)c3cc(NC=O)cn3C)cn2C)cc1C(=O)NCCC(=N)N
class.label: 1
--
molecule: CCCCC(=O)O[C@]1(C(=O)CO)CC[C@H]2[C@@H]3CCC4=CC(=O)CC[C@]4(C)[C@H]3[C@@H](O)C[C@@]21C
class.label: 0
--
molecule: CCOC(=O)c1[nH]c2ccc(OC)cc2c1NC(=O)CCN1CCC(C)CC1
class.label: 1
--
molecule: O=S(=O)(c1ccc2ccccc2c1)N(CC(O)CN1CCOCC1)c1ccccc1 (stereo not given)
class.label: 1
--
molecule: O=C(O)Cc1cc(I)c(Oc2ccc(O)c(I)c2)c(I)c1
class.label: 1
--
molecule: OC(CCCN1CCC(O)(c2ccc(Cl)cc2)CC1)c1ccc(F)cc1 (stereo not given)
class.label: 1
--
molecule: Cc1cccc(N(C)C(=S)Oc2ccc3ccccc3c2)c1
class.label: 1
